Collected 90% neutralization VR1814, MRC-9 values appear next to each entry.
measured target: hCMV glycoprotein B (gB; HEK293T transfectant) (hCMV, UniProt P06473 32-906)
Sequence (P06473 32-906 limits assumed): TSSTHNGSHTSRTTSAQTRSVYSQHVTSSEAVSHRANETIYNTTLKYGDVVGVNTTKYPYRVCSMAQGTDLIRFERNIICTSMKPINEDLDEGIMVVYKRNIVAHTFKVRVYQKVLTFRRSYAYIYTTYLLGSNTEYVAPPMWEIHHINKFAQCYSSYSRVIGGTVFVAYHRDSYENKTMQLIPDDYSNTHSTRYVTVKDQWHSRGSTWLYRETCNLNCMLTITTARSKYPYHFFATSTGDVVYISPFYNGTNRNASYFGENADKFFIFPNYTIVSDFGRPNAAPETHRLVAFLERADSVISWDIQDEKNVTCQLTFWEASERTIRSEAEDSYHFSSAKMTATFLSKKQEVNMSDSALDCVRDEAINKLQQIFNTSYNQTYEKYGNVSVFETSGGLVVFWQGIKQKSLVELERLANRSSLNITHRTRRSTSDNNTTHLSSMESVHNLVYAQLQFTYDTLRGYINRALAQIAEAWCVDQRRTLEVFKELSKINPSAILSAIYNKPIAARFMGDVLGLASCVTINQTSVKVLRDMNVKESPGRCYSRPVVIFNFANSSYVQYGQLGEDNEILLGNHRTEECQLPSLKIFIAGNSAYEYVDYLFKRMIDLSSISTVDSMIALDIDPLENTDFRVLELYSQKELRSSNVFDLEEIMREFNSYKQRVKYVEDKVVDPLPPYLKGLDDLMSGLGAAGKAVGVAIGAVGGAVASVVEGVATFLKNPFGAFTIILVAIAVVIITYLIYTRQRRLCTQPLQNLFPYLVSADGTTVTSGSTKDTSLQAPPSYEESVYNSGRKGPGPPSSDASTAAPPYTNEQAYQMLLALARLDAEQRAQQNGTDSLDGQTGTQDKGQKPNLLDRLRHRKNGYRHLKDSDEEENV
protocol notes: cell-based or functional assay
property name: 90% neutralization VR1814, MRC-9

1) 6B4 (antibody, V domains shown, human IgG; also called 6B4-biotin) VH: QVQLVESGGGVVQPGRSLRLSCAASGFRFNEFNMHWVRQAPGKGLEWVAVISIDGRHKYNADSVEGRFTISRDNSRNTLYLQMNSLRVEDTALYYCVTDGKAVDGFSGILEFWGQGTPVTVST VL: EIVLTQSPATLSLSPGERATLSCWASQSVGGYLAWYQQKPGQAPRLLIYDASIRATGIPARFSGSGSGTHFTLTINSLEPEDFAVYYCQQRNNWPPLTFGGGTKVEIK; 1 µg/mL
2) 7H3 (antibody, V domains shown, fully human IgG1 with unaltered Fc; also called 7H3-biotin; LJP538) VH: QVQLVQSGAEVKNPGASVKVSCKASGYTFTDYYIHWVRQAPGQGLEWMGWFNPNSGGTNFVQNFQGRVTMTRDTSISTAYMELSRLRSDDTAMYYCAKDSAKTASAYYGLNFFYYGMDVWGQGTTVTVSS VL: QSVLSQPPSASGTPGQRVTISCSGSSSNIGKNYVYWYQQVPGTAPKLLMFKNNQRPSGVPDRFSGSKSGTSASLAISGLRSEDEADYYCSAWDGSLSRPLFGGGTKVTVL; 3 µg/mL
3) 10C6 (antibody, V domains shown, human IgG; also called 10C6-biotin; 1006) VH: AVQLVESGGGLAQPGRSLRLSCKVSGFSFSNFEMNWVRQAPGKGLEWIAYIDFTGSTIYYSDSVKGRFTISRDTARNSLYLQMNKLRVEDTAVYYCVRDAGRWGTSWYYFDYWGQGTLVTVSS VL: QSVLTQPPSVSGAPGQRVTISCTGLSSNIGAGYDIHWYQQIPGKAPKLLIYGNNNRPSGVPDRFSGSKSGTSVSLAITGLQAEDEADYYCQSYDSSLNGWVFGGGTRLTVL; 0.75 µg/mL
